- measurement.description: Solubility in isopropanol
- Assay type: physicochemical
- assay.setup: organic solvent or mixture
endpoint.label: solubility (µg/mL)
Express your answer in µg/mL, writing the number without its unit.

[in] Look up and report measured solubility for this entry: NC[C@H]1O[C@H](O[C@H]2[C@H](O)[C@@H](O[C@H]3O[C@H](CO)[C@@H](O)[C@H](N)[C@H]3O)[C@H](N)C[C@@H]2N)[C@H](N)C[C@@H]1O [Tobra μ, tobramycin]
[out] 50
